target: Polyunsaturated fatty acid 5-lipoxygenase (Homo sapiens, UniProt P09917); assay: Inhibition of human recombinant 5-LO expressed in Escherichia coli by cell-free assay
Sequence (P09917 whole entry): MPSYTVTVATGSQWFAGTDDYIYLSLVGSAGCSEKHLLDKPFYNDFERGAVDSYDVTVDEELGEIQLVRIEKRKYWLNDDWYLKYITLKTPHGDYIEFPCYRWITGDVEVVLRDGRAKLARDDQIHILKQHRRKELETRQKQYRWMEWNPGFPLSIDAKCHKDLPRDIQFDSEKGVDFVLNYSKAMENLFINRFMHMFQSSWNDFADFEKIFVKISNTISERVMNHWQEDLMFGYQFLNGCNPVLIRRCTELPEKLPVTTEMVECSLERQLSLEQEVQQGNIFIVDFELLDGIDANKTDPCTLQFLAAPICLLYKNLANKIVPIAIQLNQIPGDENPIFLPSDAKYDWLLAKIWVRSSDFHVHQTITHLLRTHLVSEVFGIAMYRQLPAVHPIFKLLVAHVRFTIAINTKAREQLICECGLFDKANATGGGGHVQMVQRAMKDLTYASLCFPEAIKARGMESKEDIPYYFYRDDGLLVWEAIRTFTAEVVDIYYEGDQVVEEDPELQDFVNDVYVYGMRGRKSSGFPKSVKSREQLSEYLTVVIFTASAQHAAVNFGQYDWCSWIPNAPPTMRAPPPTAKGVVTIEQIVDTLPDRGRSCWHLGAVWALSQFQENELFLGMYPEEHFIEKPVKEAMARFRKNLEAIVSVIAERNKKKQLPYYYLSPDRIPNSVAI
IC50 by entry:
API: value field is a number in nM; no unit string.

Below: 5 molecules and their reported IC50.
CCCCCCC(Sc1nc(Cl)cc(Nc2ccc(-c3ccccc3)cc2)n1)C(=O)O (stereo not drawn) : 1500
CCCCCCC(Sc1nc(Cl)cc(Nc2cc(C)c(-c3ccccc3)cc2OC)n1)C(=O)O (stereo not drawn) : 2000
CCCCCC[C@@H](Sc1nc(Cl)cc(Nc2ccc(-c3ccc(C#N)cc3)cc2)n1)C(=O)O : 800
CCCCCCC(Sc1nc(Cl)cc(Nc2ccc(-c3ccc(C#N)cc3)cc2)n1)C(=O)O (stereo not drawn) : 1500
CCCCCCC(Sc1nc(Cl)cc(Nc2cc(OCC(F)(F)F)cc(OCC(F)(F)F)c2)n1)C(=O)O (stereo not drawn) : 3000

Give IC50 (Polyunsaturated fatty acid 5-lipoxygenase (Homo sapiens, UniProt P09917)) of the following molecule: CCCCCCC(Sc1nc(Cl)cc(Nc2cccc(C)c2C)n1)C(=O)O (stereo not drawn) 6500

Give IC50 (Polyunsaturated fatty acid 5-lipoxygenase (Homo sapiens, UniProt P09917)) of the following molecule: CCCCCCC(Sc1nc(Cl)cc(NCc2ccc(-c3ccccc3)cc2)n1)C(=O)O (stereo not drawn) 2000

Give IC50 (Polyunsaturated fatty acid 5-lipoxygenase (Homo sapiens, UniProt P09917)) of the following molecule: CCCCCC[C@H](Sc1nc(Cl)cc(Nc2ccc(-c3ccc(C#N)cc3)cc2)n1)C(=O)O 1500

----------
biological target: Prostaglandin E synthase (Homo sapiens); assay: Inhibition of PGES1 in human A549 cell microsome assessed as PGE2 formation at 10 uM by cell-free assay relative to control
Active and inactive are the calls of the source. The rule behind the calls is not given here.
endpoint: Activity

CCCCCCC(Sc1nc(Cl)cc(NCc2ccc(-c3ccccc3)cc2)n1)C(=O)OCC (centres undefined) : inactive
Cc1cccc(Nc2cc(Cl)nc(SCC(=O)O)n2)c1C : inactive
CCCCCCC(Sc1nc(Cl)cc(NCCc2ccccc2)n1)C(=O)O (centres undefined) : 70%
CC(=O)N(O)C/C=C/c1cccc(Oc2ccccc2)c1 : inactive

----------
target: Polyunsaturated fatty acid 5-lipoxygenase (Homo sapiens) (UniProt P09917); experiment: Inhibition of 5-LO in human PMNL cells at 10 uM relative to control; type: cell-based; set-up: scale not given: the % may be the effect or the level left
Sequence (P09917 whole entry): as above
endpoint: Activity

Recorded Activity for CCCCCC[C@@H](Sc1nc(Cl)cc(Nc2ccc(-c3ccc(C#N)cc3)cc2)n1)C(=O)O , please? 2.8%

Recorded Activity for CCCCCCCCC(Sc1nc(Cl)cc(Nc2cccc(C)c2C)n1)C(=O)O (centres undefined) , please? 7%

Recorded Activity for CCCCCCC(Sc1nc(Cl)cc(Nc2ccc(-c3ccccc3)cc2)n1)C(=O)O (centres undefined) , please? 4.1%

Recorded Activity for CCCCCCC(Sc1nc(Cl)cc(NCc2ccc(-c3ccccc3)cc2)n1)C(=O)O (centres undefined) , please? 3%

Recorded Activity for CCCCC(Sc1nc(OCCc2ccccc2)cc(OCCc2ccccc2)n1)C(=O)OCC (centres undefined) , please? 80.1%

Recorded Activity for CCCCCCC(Sc1nc(Cl)cc(NCCOc2ccccc2)n1)C(=O)OCC (centres undefined) , please? 37.1%

Recorded Activity for CCCCCCC(Sc1nc(Cl)cc(NCCOc2ccccc2)n1)C(=O)O (centres undefined) , please? 28%

Recorded Activity for CCCCC(Sc1nc(OCCc2ccccc2)cc(OCCc2ccccc2)n1)C(=O)O (centres undefined) , please? 2.7%

The measured values listed here are drawn from ChEMBL document CHEMBL1151733.
